Experiment: Toxicity against Artemia salina nauplii larvae
Type: organism-based
Settings: in vivo, read-out: LD50 (the source's name)
readoutKind: LC50 (µg/mL)
Express your answer in µg/mL, writing the number without its unit.

## Task What value of LC50 has been reported for the following compound? COc1cc([C@@H]2c3cc4c(cc3[C@@H](O[C@@H]3O[C@@H]5CO[C@@H](C)O[C@H]5[C@H](O)[C@H]3O)[C@H]3COC(=O)[C@H]23)OCO4)cc(OC)c1O [ETOPOSIDE]
## Result 7.46
